# Test system: NCI-H23
# Experiment Description: NCI tumour cell line growth inhibition, 48 h
The source made the active and inactive calls. No stated cut-off is given here; in the data, active = GI50 up to about 1.1 µM and inactive = higher.
Your response should consist of one outcome taken from active, inactive

Exercise: Tell me the recorded outcome of this test for Cc1nn2c(C(=O)N/N=C/c3ccccc3O)c(C)nc2s1 .
Solution: inactive

Exercise: Dear colleague, could you share the recorded outcome for CCCc1cc2c(cc1O)CC[C@@H]1[C@@H]2CC[C@]2(C)[C@@H](O)CC[C@@H]12 when you have a moment?
Solution: inactive

Exercise: Hi team, can someone confirm the assay call for N=C(N)NCCNC(=N)N ?
Solution: inactive

Exercise: // param item: O=C(O)CN(CC(=O)O)Cc1cc2c(cc1O)Oc1cc(O)c(CN(CC(=O)O)CC(=O)O)cc1C21OC(=O)c2ccccc21 ; yields the recorded call
Solution: inactive

Exercise: Identify the outcome logged in this assay for the compound shown: C[C@]12CC[C@@H]3c4ccc(OC(=O)N(CCCl)CCCl)cc4CC[C@H]3[C@@H]1CC[C@@H]2O
Solution: active

Exercise: Dear colleague, could you share the recorded outcome for O=C1[C@H]2ON(c3ccccc3)C(c3ccco3)[C@H]2C(=O)N1c1ccc(Cc2ccc(N3C(=O)[C@@H]4ON(c5ccccc5)C(c5ccco5)[C@@H]4C3=O)cc2)cc1 (stereo partly drawn) when you have a moment?
Solution: inactive

Exercise: Query: recorded result category for CCN1CN(c2ccccc2)C2(CCN(CCCSc3ccc(F)cc3)CC2)C1=O in this test
Solution: inactive

Exercise: Hi, do you know how CCOC(=O)/C=C1/C(CCCOCc2ccccc2)C2CCCC23CC2(CCN13)OCCO2 (stereo not drawn) came out in this test?
Solution: inactive
